Tested on: RXF 393 renal
Assay: NCI-60 one-dose screen, 48 h (100 = growth as untreated, 0 = no growth, -100 = all killed)
Details: 10 µM unless noted
This is part of a sample that, as a whole, favours compounds with a hit. Of some 83,000 tested, about 20% had one in any assay.
Kindly supply the reported growth values for the records listed here.
Answers are plain numbers, in %.

Would you please look over these solved cases?
molecule	result unit	growth
CCCCCCC/C=N/NC(=O)c1ccc(-n2cc(-c3ccccc3)nn2)cc1	%	83.5
Nc1c(C(=O)c2ccc(Cl)cc2)sc(Nc2ccccc2)c1-c1nc2ccccc2s1	%	72.8
O=C(OCC(O)(CO)C(=O)NC12CC3CC(CC(C3)C1)C2)c1ccc(Cl)cc1 (stereo not given)	%	101
COc1cccc(NC(=O)c2sc3nc(C)c(C(=O)c4ccccc4)cc3c2N)c1	%	85.8
CC(C)=CC(=O)C1C(=O)c2ccccc2C1=O	%	104
COC(=O)c1c(C(=O)OC)c2ccc3c4ncccc4ccc3n2c1C(=O)c1ccc(C)cc1	%	106

Record growth per entry; entries follow.
1. CNC(=O)c1cc(Oc2ccc3nc(NC(=O)Nc4ccc(F)cc4F)sc3c2)ccn1
2. O=C1NC(=O)C(=Cc2cc(-c3ccc(Cl)cc3)n(-c3ccccc3)n2)C(=O)N1

42.3
86

Record growth per entry; entries follow.
1. CCN(CC)CCOc1ccc(/C(=C(\C)Cc2ccc(OC)cc2)c2ccc(O)cc2)cc1
2. C/C(=N\NC(=O)c1ccc(C(C)(C)C)cc1)c1ccc(O)cc1O

6.99
-9.15

* * *

Tested on: BT-549 breast
Assay: NCI-60 one-dose screen, 48 h
Conditions: 10 µM unless noted
This is part of a sample that, as a whole, favours compounds with a hit. Of some 83,000 tested, about 20% had one in any assay. Active and inactive are the calls of the source. The calls were made as follows: active = growth percent below 10; inactive = the rest.
# valid calls are active, inactive; nothing else

molecule	target or system	label value
NCCNc1ccc([N+](=O)[O-])cc1	BT-549 breast	inactive
C#Cc1cccc(Nc2ncnc3ccc(-c4cnc(Cl)c(NS(C)(=O)=O)c4)cc23)c1	BT-549 breast	active
C[C@@H]1N=C(c2ccc(Cl)cc2Cl)Nc2nc3ccccn3c2C1=O	BT-549 breast	inactive

Could you check what this test reported for "CNC(=O)c1cc(Oc2cccc3nc(NC(=O)Nc4ccc(F)cc4F)ccc23)ccn1" ?
inactive

Could you check what this test reported for "COc1ccc(C(=O)/C=C/c2ccc(Cl)cc2)cc1S(N)(=O)=O" ?
inactive

Could you check what this test reported for CC1OC(C(=O)N2CCN(CCO)CC2)CC1COC1CCCCC1 (stereo unspecified) ?
inactive

Could you check what this test reported for "Oc1ccc(C2OCCO2)c2cccnc12" ?
inactive

Could you check what this test reported for "CN1CCN(Cc2ccc(NC(=O)c3cncc(C#Cc4cnc(N)c5ncccc45)c3)cc2Cl)CC1" ?
inactive

Could you check what this test reported for "Cc1cc(C)n(C(=O)CSc2nc3sc4c(c3c(=O)n2-c2ccccc2)CCCCC4)n1" ?
inactive

Could you check what this test reported for "CCCCCCCCCCCCCC[n+]1ccc2c(C)c3c(c(C)c2c1)c1cc(O)ccc1n3CC" ?
active

Could you check what this test reported for "Nc1nc(Nc2ccc([N+](=O)[O-])cc2O)nc(C(Cl)(Cl)Cl)n1" ?
inactive

Could you check what this test reported for "O=c1c(/C=C/c2c(O)ccc3ccccc23)nnc2sc(-c3cccc([N+](=O)[O-])c3)nn12" ?
inactive

Could you check what this test reported for CN1CC(c2ccccc2)C(C(=O)c2ccc(Br)cc2)C12C(=O)Nc1ccccc12 (stereo unspecified) ?
inactive

Could you check what this test reported for "Nc1ncc(-c2ccc3ncnc(N4CCc5cc(F)c(Cl)cc54)c3c2)cn1" ?
inactive

Could you check what this test reported for "COc1cc(-c2c(-c3ccccc3)c[nH]c2C(=O)NCCCO)c(OC)c2c1OCO2" ?
inactive

Could you check what this test reported for "COc1cccc2cc(N(C)c3nc(C)nc4c3CCC4)ccc12" ?
active

Could you check what this test reported for COc1cc2c(cc1-c1c(C)noc1C)ncc1nc(C3CCOCC3)n(C3CCC(OC(F)F)CC3)c12 (stereo unspecified) ?
inactive

Could you check what this test reported for COC(=O)c1nc(-c2ccccc2)oc1S(=O)(=O)NCC(c1ccc(Cl)cc1)N1CCCCC1 (stereo unspecified) ?
inactive

Could you check what this test reported for "O=C1/C(=C/c2cccc(Br)c2)COc2ccc(O)c(O)c21" ?
active

Could you check what this test reported for "COC(=O)c1cc(-c2cc(OC)c(OC)c(OC)c2)[nH]c1N/N=C/c1c(Cl)cccc1Cl" ?
inactive

Could you check what this test reported for "COc1ccc(C(=O)/C=C/Nc2cc(-c3ccccc3)nn2-c2ccccc2)cc1" ?
inactive
